Data provenance: paper PMC3502511

# SYSTEM_UNDER_TEST: ELIC D113A (Dickeya chrysanthemi, UniProt P0C7B7, D113A/INS163G)
# Construct: expressed in transfected cells; host or cells: X. laevis oocytes
# ASSAY_PROCEDURE: Two-electrode voltage clamp, ELIC D113A in oocytes
# Type: cell-based, Erwinia chrysanthemi
# STATED_CONDITIONS: Ca^2+ 2.5 mM, agonist cysteamine
VALUE_KIND: EC50 (µM)
Just the number please, in µM, no unit attached.

Query :: Entry under review: NCCS . Reported EC50?
Result :: 1460

###

# SYSTEM_UNDER_TEST: ELIC D113A/D158A (Dickeya chrysanthemi, UniProt P0C7B7, D113A/D158A/INS163G)
# Construct: expressed in transfected cells; host or cells: X. laevis oocytes
# ASSAY_PROCEDURE: cell-based
# Type: cell-based, Erwinia chrysanthemi
# STATED_CONDITIONS: 113A/158A; Ca^2+ 25 mM; agonist cysteamine
VALUE_KIND: EC50

Query :: What EC50 value was documented for this compound, NCCS ?
Result :: 3.35 mM
